Exercise: state measured protein stability index for each of the variants provided.
B1: COX4I1 (parent)
chain: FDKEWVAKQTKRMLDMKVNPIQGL

- Variants of: B1
- experiment summary: protein stability index of a GFP-peptide fusion (GPS, HEK-293T) (PSI 1-6); higher = more stable;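 further: lentivirally expressed fusions sorted by FACS into six bins by GFP to DsRed ratio, PSI derived from sequencing read proportions per bin multiplied by bin number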
- cond: c terminus: a fixed tail appended
Lab note: record the figure alone, no unit after it.

protein stability index in this record for FDKEWVAKQKKRMLDMKVNPIQGL [T10K] : 1.78

protein stability index in this record for FDKGWVAKQTKRMLDMKVNPIQGL [E4G] : 1.43

protein stability index in this record for FDKEWVAKQTKRMLDRKVNPIQGL [M16R] : 1.72

protein stability index in this record for FDKEWVVKQTKRMLDMKVNPIQGL [A7V] : 1.18

protein stability index in this record for FDKEWVAKQTKRMNDMKVNPIQGL [L14N] : 1.56

protein stability index in this record for FDKEWVYKQTKRMLDMKVNPIQGL [A7Y] : 1.71

protein stability index in this record for FDKEWVAKQTKRMLDMKVNSIQGL [P20S] : 1.55

protein stability index in this record for FDKEWVAKQTKRMLDMKVMPIQGL [N19M] : 1.97

protein stability index in this record for FDKVWVAKQTKRMLDMKVNPIQGL [E4V] : 2.42

protein stability index in this record for VDKEWVAKQTKRMLDMKVNPIQGL [F1V] : 2.77

protein stability index in this record for FDKEWVAKYTKRMLDMKVNPIQGL [Q9Y] : 2.14

protein stability index in this record for FDKEWVAKQTPRMLDMKVNPIQGL [K11P] : 2.32

protein stability index in this record for FDKEWVAKWTKRMLDMKVNPIQGL [Q9W] : 1.8

protein stability index in this record for FDKEWVAKQTKRMLDMCVNPIQGL [K17C] : 2.08

protein stability index in this record for FDKEWVATQTKRMLDMKVNPIQGL [K8T] : 1.48

protein stability index in this record for FDKEWVAKQTKRMLDMKVWPIQGL [N19W] : 1.38

protein stability index in this record for FDKEWKAKQTKRMLDMKVNPIQGL [V6K] : 2.28

protein stability index in this record for FDKEWVAKQTKRMLDMKVIPIQGL [N19I] : 1.76

protein stability index in this record for FDKEWVAKQTKRMKDMKVNPIQGL [L14K] : 2.12

protein stability index in this record for FDKEWVAKQTKRMRDMKVNPIQGL [L14R] : 1.82

protein stability index in this record for FDKAWVAKQTKRMLDMKVNPIQGL [E4A] : 2.41

protein stability index in this record for FDKEWVANQTKRMLDMKVNPIQGL [K8N] : 1.38
